# Tested on: HCV genotype 1b replicon
# Experiment Summary: HCV replicon assay, genotype 1b replicon EC50
# Assay type: cell-based, Hepatitis C virus
# Cond: Hepatitis C virus, HCV replicon, genotype 1b; read-out: EC50 [gt-1b]
Endpoint: pEC50
Note on units: pEC50 is unitless, being -log10 of a concentration expressed in mol/L.

Reported pEC50 ( COc1ccc2nc(C(F)(F)F)c3c(c2c1)[C@H](F)C[C@]1(C[C@H]2C(=O)N[C@]4(C(=O)NS(=O)(=O)C5(C)CC5)C[C@H]4/C=C\CCCCC[C@H](NC(=O)OCC(C)(C)C)C(=O)N2C1)O3 [Example 462] ) = 8.24

Recorded result, CC(C)(C)OC(=O)N[C@H]1CCCCC/C=C\[C@@H]2C[C@@]2(C(=O)NS(=O)(=O)C2(C)CC2)NC(=O)[C@@H]2C[C@]3(CCc4c(c(C(F)(F)F)nc5ccc(OCCO[Si](C)(C)C(C)(C)C)cc45)O3)CN2C1=O [Example 492] , pEC50: 8.86

Value of pEC50 reported for the compound CC(C)[C@H](C)OC(=O)N[C@H]1CCCCC/C=C\[C@@H]2C[C@@]2(C(=O)NS(=O)(=O)C2(C)CC2)NC(=O)[C@@H]2C[C@]3(CCc4c(c(C(F)(F)F)nc5ccc(OCCN6CCOCC6)cc45)O3)CN2C1=O [Example 474] is 8.76

For this compound ( COCC1(S(=O)(=O)NC(=O)[C@@]23C[C@H]2/C=C\CCCCC[C@H](NC(=O)OCC(C)(C)C)C(=O)N2C[C@@]4(CCc5c(c(C(F)(F)F)nc6ccc(OC)cc56)O4)C[C@H]2C(=O)N3)CC1 [Example 496] ), measured pEC50 is 8.16

Record summary for COc1ccc2nc(C(F)(F)F)c3c(c2c1)[C@](C)(O)C[C@]1(C[C@H]2C(=O)N[C@]4(C(=O)NS(=O)(=O)C5(C)CC5)C[C@H]4/C=C\CCCCC[C@H](NC(=O)OC(C)(C)C)C(=O)N2C1)O3 [Example 489] : reported pEC50 = 8.37

# compound CCc1nc2ccc(OC)cc2c2c1O[C@]1(CC2)C[C@H]2C(=O)N[C@]3(C(=O)NS(=O)(=O)C4(C)CC4)C[C@H]3/C=C\CCCCC[C@H](NC(=O)O[C@H](C)C3CC3)C(=O)N2C1 [Example 502] ; its pEC50 = 9.54

For record COc1ccc2nc(C)c3c(c2n1)CC[C@]1(C[C@H]2C(=O)N[C@]4(C(=O)NS(=O)(=O)C5(C)CC5)C[C@H]4/C=C\CCCCC[C@H](NC(=O)OC4CCCC4)C(=O)N2C1)O3 [Example 363] the listed pEC50 is 8.09
